The reported numbers originate from the supplement of paper PMC10307832.

- Test system: SK-LU-1
- assay.notes: relative viability (nuclei count vs DMSO), 5 days (fraction); higher = more cells survive
- applied.conditions: first compound 0.03162 µM
The entries below are paired with their reported relative viability.

compound	test.system	relative viability
CCN(CC)CCCCNc1ncc2cc(-c3cc(OC)cc(OC)c3)c(NC(=O)NC(C)(C)C)nc2n1 + Nc1ncn([C@H]2C[C@H](O)[C@@H](CO)O2)c(=O)n1 [Decitabine] (partner 2 µM)	SK-LU-1	0.608
CCN(CC)CCCCNc1ncc2cc(-c3cc(OC)cc(OC)c3)c(NC(=O)NC(C)(C)C)nc2n1 + COc1cccc2cc(-c3nc([C@H]4CC[C@H](C(=O)O)CC4)n4ncnc(N)c34)[nH]c12 [OSI-027] (partner 0.5 µM)	SK-LU-1	0.377
O=c1cc(N2CCOCC2)oc2c(-c3cccc4c3sc3ccccc34)cccc12 + CC1(C)CCC(c2ccc(Cl)cc2)=C(CN2CCN(c3ccc(C(=O)NS(=O)(=O)c4ccc(N[C@H](CCN5CCOCC5)CSc5ccccc5)c(S(=O)(=O)C(F)(F)F)c4)cc3)CC2)C1 [Navitoclax] (partner 0.5 µM)	SK-LU-1	0.954
O=c1cc(N2CCOCC2)oc2c(-c3cccc4c3sc3ccccc34)cccc12 + Cc1nc(NC(=O)N2CCC[C@H]2C(N)=O)sc1-c1ccnc(C(C)(C)C(F)(F)F)c1 [Alpelisib] (partner 2 µM)	SK-LU-1	0.966
